These measurements were taken from ChEMBL document CHEMBL6177995.

ASSAY_OVERVIEW: AUC (0 to t) in Sprague-Dawley rat at 10 mg/kg, po measured after 8 hrs by LC-MS/MS analysis
Format: ADME, organism-based
CONDITION_SUMMARY: in vivo
MEASURED_ATTRIBUTE: AUC(0-t) at 8 h (ng·h/mL)
Provide only the numeric value, understood in ng·h/mL.

Please fill in: AUC(0-t) at 8 h reported for `COc1cccc(S(=O)(=O)NC[C@@H]2CCCN2)c1.Cl` = 229

----------
Reported pEC50 is given for each of the following compounds.
MEASURED_ON: Trace amine-associated receptor 1 (Homo sapiens, UniProt Q96RJ0)
ASSAY_OVERVIEW: Agonist activity at TAAR1 (unknown origin) transfected in HEK293 cells co-transfected with Galphaq-Nluc, Gbeta1/3 and Ggamma1/2/9-mVenus assessed as Galphaq-Gbeta/gamma dissociation by BRET assay
Type: functional, cell-based
pEC50: −log10 of the molar value.

O=S(=O)(NC[C@@H]1CCCN1)c1ccccc1Br | < 5.00
COc1cccc(S(=O)(=O)NC[C@@H]2CCCN2)c1.Cl | 7.83

Please fill in: pEC50 reported for `O=[N+]([O-])c1ccccc1S(=O)(=O)NC[C@@H]1CCCN1` = < 5.00

Please fill in: pEC50 reported for `N#Cc1ccc(S(=O)(=O)NC[C@@H]2CCCN2)cc1` = < 5.00

Please fill in: pEC50 reported for `Cc1ccc(S(=O)(=O)NC[C@@H]2CCCN2)cc1` = < 5.00

----------
ASSAY_OVERVIEW: Half-life in Sprague-Dawley rat at 2 mg/kg, iv measured after 8 hrs by LC-MS/MS analysis
Type: ADME, organism-based
CONDITION_SUMMARY: in vivo
MEASURED_ATTRIBUTE: half-life (min)
Provide only the numeric value, understood in min.

Please fill in: half-life reported for `COc1cccc(S(=O)(=O)NC[C@@H]2CCCN2)c1.Cl` = 21

----------
ASSAY_OVERVIEW: AUC (0 to t) in Sprague-Dawley rat at 2 mg/kg, iv measured after 8 hrs by LC-MS/MS analysis
Format: ADME, organism-based
CONDITION_SUMMARY: in vivo
MEASURED_ATTRIBUTE: AUC(0-t) at 8 h (ng·h/mL)
Provide only the numeric value, understood in ng·h/mL.

Please fill in: AUC(0-t) at 8 h reported for `COc1cccc(S(=O)(=O)NC[C@@H]2CCCN2)c1.Cl` = 355

----------
MEASURED_ON: Trace amine-associated receptor 1 (Homo sapiens)
Sequence (Q96RJ0 whole entry): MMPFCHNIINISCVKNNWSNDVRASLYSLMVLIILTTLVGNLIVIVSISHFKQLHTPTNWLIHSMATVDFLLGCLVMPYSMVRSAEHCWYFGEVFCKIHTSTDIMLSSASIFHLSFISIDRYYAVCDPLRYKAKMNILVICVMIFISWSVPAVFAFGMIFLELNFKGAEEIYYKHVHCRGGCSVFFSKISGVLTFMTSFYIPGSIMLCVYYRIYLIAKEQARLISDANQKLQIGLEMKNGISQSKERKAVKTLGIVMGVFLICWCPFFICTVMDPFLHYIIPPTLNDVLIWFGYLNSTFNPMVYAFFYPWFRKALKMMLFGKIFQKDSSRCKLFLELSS
ASSAY_OVERVIEW: Agonist activity at TAAR1 (unknown origin) transfected in HEK293 cells co-transfected with GalphaS-Nluc, Gbeta1/3 and Ggamma1/2/9-mVenus assessed as GalphaS-Gbeta/gamma dissociation by BRET assay
Assay type: functional, cell-based
pEC50: −log10 of the molar value.
Reported pEC50 is given for each of the following compounds.

O=S(=O)(NC[C@@H]1CCCN1)c1ccc(Br)cc1 | < 5.00

// pEC50 (Trace amine-associated receptor 1 (Homo sapiens)) for `Cc1cccc(S(=O)(=O)NC[C@@H]2CCCN2)c1` = < 5.00

// pEC50 (Trace amine-associated receptor 1 (Homo sapiens)) for CC(C)CC(N)c1nc2ccccc2[nH]1 (centres undefined) = 7.00

// pEC50 (Trace amine-associated receptor 1 (Homo sapiens)) for `O=c1[nH]c2ccc(S(=O)(=O)NC[C@@H]3CCCN3)cc2[nH]1` = < 5.00

// pEC50 (Trace amine-associated receptor 1 (Homo sapiens)) for `O=[N+]([O-])c1ccccc1S(=O)(=O)NC[C@@H]1CCCN1` = < 5.00

// pEC50 (Trace amine-associated receptor 1 (Homo sapiens)) for `O=S(=O)(NC[C@@H]1CCCN1)c1cc(F)cc(F)c1` = < 5.00

// pEC50 (Trace amine-associated receptor 1 (Homo sapiens)) for `O=S(=O)(NC[C@@H]1CCCN1)c1ccc2[nH]cnc2c1` = 7.33

// pEC50 (Trace amine-associated receptor 1 (Homo sapiens)) for `O=S(=O)(NC[C@@H]1CCCN1)c1ccc(O)cc1` = < 5.00

// pEC50 (Trace amine-associated receptor 1 (Homo sapiens)) for `O=S(=O)(NC[C@@H]1CCCN1)c1cccc(C(F)(F)F)c1` = < 5.00

// pEC50 (Trace amine-associated receptor 1 (Homo sapiens)) for `N#Cc1cccc(S(=O)(=O)NC[C@@H]2CCCN2)c1` = < 5.00

// pEC50 (Trace amine-associated receptor 1 (Homo sapiens)) for `O=S(=O)(NC[C@@H]1CCCN1)c1ccccc1` = < 5.00

// pEC50 (Trace amine-associated receptor 1 (Homo sapiens)) for `O=S(=O)(NC[C@@H]1CCCN1)c1ccccc1C(F)(F)F` = < 5.00

// pEC50 (Trace amine-associated receptor 1 (Homo sapiens)) for `Cc1ccccc1S(=O)(=O)NC[C@@H]1CCCN1` = < 5.00

// pEC50 (Trace amine-associated receptor 1 (Homo sapiens)) for `O=S(=O)(NC[C@@H]1CCCN1)c1ccc(Cl)cc1` = < 5.00

// pEC50 (Trace amine-associated receptor 1 (Homo sapiens)) for `N#Cc1ccc(S(=O)(=O)NC[C@@H]2CCCN2)cc1` = < 5.00

// pEC50 (Trace amine-associated receptor 1 (Homo sapiens)) for `O=S(=O)(NC[C@@H]1CCCN1)c1c(Cl)cccc1Cl` = < 5.00

// pEC50 (Trace amine-associated receptor 1 (Homo sapiens)) for `O=S(=O)(NC[C@@H]1CCCN1)c1ccccc1Br` = < 5.00

// pEC50 (Trace amine-associated receptor 1 (Homo sapiens)) for CNc1ncc(S(C)(=O)=O)c(C2CCCNC2)n1 (centres undefined) = 7.31

// pEC50 (Trace amine-associated receptor 1 (Homo sapiens)) for `Cc1ccc(S(=O)(=O)NC[C@@H]2CCCN2)cc1` = < 5.00

----------
Reported EC50 is given for each of the following molecules.
MEASURED_ON: UniProtKB Q96RJ0
ASSAY_OVERVIEW: Agonist activity at TAAR1 (unknown origin) transfected in HEK293 cells co-transfected with GalphaS-Nluc, Gbeta1/3 and Ggamma1/2/9-mVenus assessed as GalphaS-Gbeta/gamma dissociation by BRET assay
Assay type: functional, cell-based

// known answers, use as guide
O=c1[nH]c2cc(S(=O)(=O)NC[C@@H]3CCCN3)ccc2o1 | 158 nM
O=S(=O)(NC[C@@H]1CCCN1)c1cccc(Br)c1 | > 10000 nM
O=S(=O)(NC[C@@H]1CCCN1)c1ccc(Cl)s1 | > 10000 nM

Please fill in: EC50 reported for `O=S(=O)(NC[C@@H]1CCCN1)c1cccc(Cl)c1` = > 10000 nM

Please fill in: EC50 reported for `COc1cccc(S(=O)(=O)NC[C@@H]2CCCN2)c1.Cl` = 6.1 nM

Please fill in: EC50 reported for `O=[N+]([O-])c1cccc(S(=O)(=O)NC[C@@H]2CCCN2)c1` = > 10000 nM

Please fill in: EC50 reported for COc1ccc2c(c1OC)C(=O)OC2Nc1ccccn1 (stereo unspecified) = 161 nM

Please fill in: EC50 reported for `O=S(=O)(NC[C@@H]1CCCN1)c1ccc2c(c1)CCC2` = > 10000 nM

Please fill in: EC50 reported for `O=S(=O)(NC[C@@H]1CCCN1)c1ccc(C(F)(F)F)cc1` = > 10000 nM

Please fill in: EC50 reported for `O=[N+]([O-])c1ccc(S(=O)(=O)NC[C@@H]2CCCN2)cc1` = > 10000 nM

Please fill in: EC50 reported for `CCC[C@H]1CN(C(=O)c2cc(Cl)cn2C)C[C@@H]1N` = 275 nM

----------
ASSAY_OVERVIEW: Cmax in Sprague-Dawley rat at 10 mg/kg, po measured after 8 hrs by LC-MS/MS analysis
Assay type: ADME, organism-based
CONDITION_SUMMARY: in vivo
MEASURED_ATTRIBUTE: Cmax (ng/mL)
Provide only the numeric value, understood in ng/mL.

Please fill in: Cmax reported for `COc1cccc(S(=O)(=O)NC[C@@H]2CCCN2)c1.Cl` = 63.7

----------
ASSAY_OVERVIEW: Clearance in Sprague-Dawley rat at 2 mg/kg, iv measured after 8 hrs by LC-MS/MS analysis
Assay type: ADME, organism-based
CONDITION_SUMMARY: in vivo
MEASURED_ATTRIBUTE: clearance (mL/min/kg)
Provide only the numeric value, understood in mL/min/kg.

Please fill in: clearance reported for `COc1cccc(S(=O)(=O)NC[C@@H]2CCCN2)c1.Cl` = 94.1
